- Test system: KM12
- ASSAY_PROTOCOL: NCI tumour cell line growth inhibition, 48 h
Active and inactive are the calls of the source. Cut-off read from the data, not from the text of the source: active = GI50 up to about 1.1 µM and inactive = higher.
Valid outcomes are listed here; reply with one: active, inactive

COMPOUND	CATEGORY
COc1cc(C2C(Cl)C(=O)N2NC(=O)c2ccccc2O)ccc1O (configuration not stated)	inactive
Cc1ccc(Nc2nc(O)c3[nH]cnc3n2)cc1CO	inactive
CC[C@H]1CNC(=O)CC1CC(=O)OC (some centres not stated)	inactive
O=C(/C=C/c1ccc(-c2ccccc2)cc1)NCc1ccc(C(=O)NCCc2ccccc2)cc1	inactive
C/C(=C\COc1cc(O)c2c(c1)C(=O)c1cc(C)cc(O)c1C2=O)CCC1OC1(C)C (configuration not stated)	inactive
COc1cc(C(C[N+](=O)[O-])SC(C)=O)ccc1OCc1ccccc1 (configuration not stated)	inactive
c1csc(-c2ccc(-c3ccc(-c4cccs4)s3)s2)c1	inactive
C/C(=N\NC(N)=S)c1sc(-n2nc(-c3ccccc3)cc2-c2ccccc2)nc1C	inactive

Q) Give the logged outcome of this assay for the following compound: `O=C1c2ccccc2-c2nc(-c3cccc([N+](=O)[O-])c3)nnc21`
A) inactive

Q) Give the logged outcome of this assay for the following compound: `NC1CCCCC1.O=P(O)(O)C1(P(=O)(O)O)CC1`
A) inactive

Q) Give the logged outcome of this assay for the following compound: `Oc1nnc(CNc2ccc(Cl)cc2Cl)c2ccccc12`
A) inactive

====

- Test system: BT-549
- ASSAY_PROTOCOL: NCI tumour cell line growth inhibition, 48 h
Activity calls are given as the source filed them. Rule as the data show it: active = GI50 up to about 1.1 µM and inactive = higher.
Valid outcomes are listed here; reply with one: T (active), F (inactive)

COMPOUND	CATEGORY
CC(Oc1ccccc1Cl)C(=O)NN1C(=O)CC(=O)NC1=S (centres undefined)	F
NC(Cc1ccc(O)cn1)C(=O)O (centres undefined)	F
NS(=O)(=O)c1nnc(NS(=O)(=O)c2ccc(Cl)cc2)s1	F
Clc1ccc(Cc2nc3cc(CCN4CCN(c5ccccc5)CC4)ccc3[nH]2)cc1	F
COC(Cc1cc(C(O)(c2ccc(C(C)(C)C)cc2)c2cc(CC(OC)(c3cc(C(OC)(c4ccc(C(C)(C)C)cc4)c4ccc(C(C)(C)C)cc4)c(C)cc3C)c3cc(C(OC)(c4ccc(C(C)(C)C)cc4)c4ccc(C(C)(C)C)cc4)c(C)cc3C)c(C)cc2C)c(C)cc1C)(c1cc(C(OC)(c2ccc(C(C)(C)C)cc2)c2ccc(C(C)(C)C)cc2)c(C)cc1C)c1cc(C(OC)(c2ccc(C(C)(C)C)cc2)c2ccc(C(C)(C)C)cc2)c(C)cc1C	F
C/C=C1/CN2CCc3c([nH]c4ccccc34)[C@@H]2C[C@@H]1Cc1nccc2c1[nH]c1cc(O)ccc12	F
CCOP(=O)(OCC)OC1c2[nH]cc(C(=O)OCc3ccccc3)c2-c2cc(C(=O)OC)[nH]c2C1OC (centres undefined)	F
COC1=C2CC(C)CC(OC)C(OC(=O)CN)[C@H](C)/C=C(\C)C(OC(N)=O)C(OC)/C=C\C=C(/C)C(=O)NC(=CC1=O)C2=O (some centres undefined)	T

Q) Give the logged outcome of this assay for the following compound: CC(C)=CCN1CC(C)C(=O)Nc2cc(Cl)ccc21 (centres undefined)
A) F

====

- Test system: HCT-15
Where a SMILES comes first, the peptide text is derived from it. [ ]: non-standard residue; d: D form. The star is where a group is joined. ξ: configuration not given here. NMeF = CN[CH](Cc1ccccc1)C(=O)O; ξNMe2Val = CC(C)C(C(=O)*)N(C)C; NMeV = CN[CH](C(=O)O)C(C)C; OtBu = CC(C)(C)O*
VALUE_TYPE: GI50 (µM)
Report as a plain number; the unit µM is understood.

Some entries whose results are on file:
COMPOUND	VALUE_TYPE	QUANTITATIVE_READOUT
CC(C)C(C(=O)N(C)C(Cc1ccccc1)C(=O)N(C)C(C(=O)N(C)C(C(=O)N1CCCC1C(=O)OC(C)(C)C)C(C)C)C(C)C)N(C)C (stereo not drawn) (ξNMe2Val-[NMeF][NMeV][NMeV]P-OtBu; configuration not given here)	GI50	51.6
O=c1cc(-c2ccccc2)[nH]c2cc(F)cc(F)c12	GI50	6.59
COc1ccc(/N=N/C(=O)NC(CC(C)C)C(=O)NC(C)C(=O)O)cc1 (stereo not drawn)	GI50	1.3

--- query ---
Q) So what does the record say about GI50 for `Cc1nc(C(N)=S)sc1C(=O)CC(=O)C(=O)Nc1c(C(C)C)cccc1C(C)C` ?
A) 32.6

Where these numbers come from: ChEMBL document CHEMBL1201862
